Reference source: patent US20260242735A1

Biological target: human CD33 I66A (human, UniProt P20138 18-364)
Sequence (P20138 18-364 I66A limits assumed): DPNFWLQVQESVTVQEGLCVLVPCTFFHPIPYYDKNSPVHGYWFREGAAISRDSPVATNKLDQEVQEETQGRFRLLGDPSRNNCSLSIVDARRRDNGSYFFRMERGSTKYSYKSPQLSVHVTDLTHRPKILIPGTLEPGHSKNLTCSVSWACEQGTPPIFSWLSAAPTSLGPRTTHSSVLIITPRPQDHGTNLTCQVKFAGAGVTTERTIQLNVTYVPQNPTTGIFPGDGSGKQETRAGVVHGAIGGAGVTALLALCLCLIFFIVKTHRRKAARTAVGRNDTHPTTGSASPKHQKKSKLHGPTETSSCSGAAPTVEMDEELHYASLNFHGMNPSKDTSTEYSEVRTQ
Assay: alanine scan, flow cytometry;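 also: HEK293-T cells transiently expressing single-residue alanine mutants of CD33 (alanine swapped to serine), antibody binding read by fluorescence in duplicate, background-subtracted, expressed relative to wild-type CD33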
binders and their reported Mean % WT Binding
The answer is to be given in % WT; state only the numeric part.

Refmab #2 (antibody, V domains shown, Full-length format is human IgG1 Fc silent (PG-LALA); The alanine scan used IgG or Fab) VH: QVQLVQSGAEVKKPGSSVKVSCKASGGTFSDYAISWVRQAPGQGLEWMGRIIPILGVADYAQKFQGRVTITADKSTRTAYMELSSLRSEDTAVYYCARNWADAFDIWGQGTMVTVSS VL: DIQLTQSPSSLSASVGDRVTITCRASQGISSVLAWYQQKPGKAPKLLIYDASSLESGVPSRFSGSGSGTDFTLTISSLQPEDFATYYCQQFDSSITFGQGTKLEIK = 118
Refmab #3 (antibody, V domains shown, Full-length format is human IgG1 Fc silent (PG-LALA); The alanine scan used IgG or Fab) VH: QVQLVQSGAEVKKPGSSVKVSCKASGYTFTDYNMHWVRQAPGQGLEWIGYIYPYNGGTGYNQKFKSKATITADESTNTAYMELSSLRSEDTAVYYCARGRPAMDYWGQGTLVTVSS VL: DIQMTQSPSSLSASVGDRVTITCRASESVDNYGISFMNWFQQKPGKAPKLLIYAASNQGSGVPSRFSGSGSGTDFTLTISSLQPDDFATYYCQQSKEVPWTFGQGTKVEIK = 126
Refmab #1 (antibody, V domains shown, Full-length format is human IgG1 (Absolute Antibody Ab00283-10.0); The alanine scan used IgG or Fab; also called hP67.6) VH: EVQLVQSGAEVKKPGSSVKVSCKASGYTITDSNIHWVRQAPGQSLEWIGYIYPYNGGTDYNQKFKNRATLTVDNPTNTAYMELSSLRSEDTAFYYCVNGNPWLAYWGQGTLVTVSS VL: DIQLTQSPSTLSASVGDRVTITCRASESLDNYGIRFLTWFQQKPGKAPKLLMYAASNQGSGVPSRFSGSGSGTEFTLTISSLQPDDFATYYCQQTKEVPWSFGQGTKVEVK = 96.6

# context switch: different binder, same Mean % WT Binding
Prompt: // lookup Mean % WT Binding for Refmab #4 (antibody, V domains shown, Full-length format is human IgG1 Fc silent (PG-LALA); The alanine scan used IgG or Fab) VH: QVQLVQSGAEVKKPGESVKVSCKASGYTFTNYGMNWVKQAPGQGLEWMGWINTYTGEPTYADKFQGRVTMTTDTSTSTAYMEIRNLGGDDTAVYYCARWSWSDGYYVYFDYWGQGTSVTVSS VL: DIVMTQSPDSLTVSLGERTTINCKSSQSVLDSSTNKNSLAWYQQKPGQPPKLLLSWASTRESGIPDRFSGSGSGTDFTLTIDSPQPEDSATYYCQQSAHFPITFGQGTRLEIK
Response: 108
